# assay.notes: AUC (0 to infinity) in Sprague-Dawley rat plasma at 10 mg/kg, po administered as single dose by LC-MS/MS analysis
# Assay type: ADME, organism-based
# Design: dose 10 mg/kg, time infinity, route oral
property.name: AUC(0-inf) (ng·h/mL)

a: O/N=c1\cc(-c2cc3sccc3cn2)oc2ccc(CCCN3CCOCC3)cc12
b: O/N=c1\cc(-c2cc3cccn3cn2)oc2ccc(OCCN3CCOCC3)cc12
Input: Between a and b , whose measured AUC(0-inf) reads higher? # reply format: chosen label
Output: b

====

# assay.notes: Plasma concentration in Sprague-Dawley rat at 30 mg/kg, ip after 240 mins
# Format: ADME, organism-based
property.name: concentration at 4 h (ng/mL)
Please reply with the bare figure in ng/mL and do not write the unit itself.

Documented concentration at 4 h of O/N=c1\cc(-c2cc3cccn3cn2)oc2ccc(OCCN3CCOCC3)cc12 : 99

====

# assay.notes: Ratio of drug level in C57BL/6 mouse brain to plasma at 2 mg/kg, iv administered as single dose measured after 30 mins by LC-MS/MS analysis
# Type: ADME, organism-based
# condition.description: read-out: BPR
property.name: Kp at 0.5 h
# output: bare number, no unit

Documented Kp at 0.5 h of O/N=c1\cc(-c2cc3cccn3cn2)oc2ccc(OCCN3CCOCC3)cc12 : 3.6

====

# assay.notes: Tmax in C57BL/6 mouse plasma at 10 mg/kg, po administered as single dose by LC-MS/MS analysis
# Type: ADME, organism-based
property.name: Tmax (min)
Please reply with the bare figure in min and do not write the unit itself.

Documented Tmax of O/N=c1\cc(-c2cc3cccn3cn2)oc2ccc(OCCN3CCOCC3)cc12 : 30

====

# system.name: Metabotropic glutamate receptor 4 (Homo sapiens)
# Sequence (Q14833 whole entry): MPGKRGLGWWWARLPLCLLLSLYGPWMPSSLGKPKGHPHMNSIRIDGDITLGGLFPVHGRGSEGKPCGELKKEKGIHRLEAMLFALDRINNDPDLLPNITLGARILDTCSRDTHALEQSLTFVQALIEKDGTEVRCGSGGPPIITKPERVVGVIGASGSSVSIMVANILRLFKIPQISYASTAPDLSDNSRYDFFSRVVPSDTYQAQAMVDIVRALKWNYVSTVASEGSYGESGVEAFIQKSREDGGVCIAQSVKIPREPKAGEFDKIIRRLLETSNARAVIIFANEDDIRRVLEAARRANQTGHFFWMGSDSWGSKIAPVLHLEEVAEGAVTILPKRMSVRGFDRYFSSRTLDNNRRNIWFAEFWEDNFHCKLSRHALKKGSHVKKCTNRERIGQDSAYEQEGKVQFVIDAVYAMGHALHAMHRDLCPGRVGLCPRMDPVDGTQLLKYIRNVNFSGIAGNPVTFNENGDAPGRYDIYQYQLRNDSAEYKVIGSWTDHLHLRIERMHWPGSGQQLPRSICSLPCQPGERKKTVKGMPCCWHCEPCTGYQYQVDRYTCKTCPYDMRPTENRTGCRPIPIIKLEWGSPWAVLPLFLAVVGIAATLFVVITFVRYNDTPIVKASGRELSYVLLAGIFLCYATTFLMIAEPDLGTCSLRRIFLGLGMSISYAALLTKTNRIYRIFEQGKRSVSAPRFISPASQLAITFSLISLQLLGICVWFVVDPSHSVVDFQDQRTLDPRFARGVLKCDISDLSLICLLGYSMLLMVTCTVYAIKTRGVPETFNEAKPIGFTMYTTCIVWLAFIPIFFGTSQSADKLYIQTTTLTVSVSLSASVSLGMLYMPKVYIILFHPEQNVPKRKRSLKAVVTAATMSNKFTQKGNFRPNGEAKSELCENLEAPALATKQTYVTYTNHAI
# assay.notes: Positive allosteric modulation of recombinant human mGlu4 receptor expressed in HEK293 cells co-expressing Gi/Gq assessed as increase in glutamate-induced calcium flux preincubated for 10 mins followed by glutamate addition measured for 3 mins by Fluo4-AM dye based fluorescence assay
# Assay type: functional, cell-based
# condition.description: read-out: EC50
property.name: EC50 (µM)

O/N=c1\cc(-c2cc3sccc3cn2)oc2ccc(CCCN3CCOCC3)cc12 :: 0.079

P: O/N=c1\cc(-c2cc3cccn3cn2)oc2ccc(OCCN3CCC(F)(F)CC3)cc12
Q: Cn1ccc2cc(-c3c/c(=N\O)c4ccccc4o3)ncc21
Input: Between P and Q , whose measured EC50 reads higher? # reply format: chosen label
Output: Q

A: CN1CCN(CCCNc2ccc3oc(-c4cc5ccccc5cn4)c/c(=N\O)c3c2)CC1
B: CC(=O)N1CC(Oc2ccc3oc(-c4cc5sccc5cn4)c/c(=N\O)c3c2)C1
Input: Hello, I am sorting some records. Could you say if A or B has the smaller EC50 value? # reply format: chosen label
Output: B
(B: 0.053 µM, A: 5.26 µM)

====

# assay.notes: Plasma clearance in Sprague-Dawley rat at 1 mg/kg, iv administered as single dose by LC-MS/MS analysis
# Type: ADME, organism-based
property.name: clearance (mL/min/kg)

O/N=c1\cc(-c2cc3cccn3cn2)oc2ccc(OCCN3CCOCC3)cc12 :: 113
O/N=c1\cc(-c2cc3sccc3cn2)oc2ccc(CCCN3CCOCC3)cc12 [FOLIGLURAX] :: 104
